System: MCF7 complex spheroid growth, % test/control
Assay: Anticancer human tumor MCF7 cell line growth inhibition [Asc];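 also: spheroids exposed to compounds for 7 days; 100% = DMSO vehicle control wells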
Conditions: second compound 0.316 µM; first compound 0.03 µM; stronger effect = lower value
Text: Multicellular complex tumor spheroid response to apoptosis pathway targeting inhibitors Alrizomadlin, Pelcitoclax, and Dasminapant in combination with a variety of drugs and investigational agents in selected tumor cell lines […] Compounds. […] If the clinical Cmax for an agent had not been determined, the highest concentration tested was 10 microM. […]
For each of the compounds below, state its viability, T/C.
Give bare numbers, in %.

Cc1nc(N2CCC3(CC2)COC(C)C3N)c(CO)nc1Sc1ccnc(N)c1Cl (stereo not drawn) + CNC(C)C(=O)NC1CN(S(=O)(=O)c2cccc(S(=O)(=O)N3CCC4CCC(C(=O)NC(c5ccccc5)c5ccccc5)N4C(=O)C(NC(=O)C(C)NC)C3)c2)CCC2CCC(C(=O)NC(c3ccccc3)c3ccccc3)N2C1=O: 12.2
CCN1C(C(=O)NC23CCC(C(=O)O)(CC2)CC3)C(c2cccc(Cl)c2F)C2(C(=O)Nc3cc(Cl)ccc32)C12CCCCC2 (stereo not drawn) + CNC(C)C(=O)NC1CN(S(=O)(=O)c2cccc(S(=O)(=O)N3CCC4CCC(C(=O)NC(c5ccccc5)c5ccccc5)N4C(=O)C(NC(=O)C(C)NC)C3)c2)CCC2CCC(C(=O)NC(c3ccccc3)c3ccccc3)N2C1=O: 10.7

Below: the item to evaluate.
Can you look up the measured viability, T/C of CCN1C(C(=O)NC23CCC(C(=O)O)(CC2)CC3)C(c2cccc(Cl)c2F)C2(C(=O)Nc3cc(Cl)ccc32)C12CCCCC2 (stereo not drawn) + Cc1c(S(C)(=O)=O)c(-c2cc(F)cc(N3CCN(c4ccc(NS(=O)(=O)c5ccc(NC(CCN6CCC(C(=O)OCCCP(=O)(O)O)CC6)CSc6ccccc6)c(S(=O)(=O)C(F)(F)F)c5)cc4)CC3)c2)c(-c2ccc(Cl)cc2)n1C(C)C for me? 79.6
